Test: Hepatic microsomal stability
Assay type: in vitro ADME
Conditions: human microsomes 0.5 mg protein/mL, NADPH, 1 μM, 37° C.; compound remaining; time point not stated
property_measured: microsomal stability (%)
Write the number in % without appending the unit.

Retrieve microsomal stability (%) measured for Cc1c(F)c(Nc2cc3c(cn2)N(C)C(=O)CO3)cc2c1ncn2CC1CC1 and print it.
76

Retrieve microsomal stability (%) measured for CN1C(=O)COc2nc(Nc3cc(C(F)(F)F)c4ncn(CC5CC5)c4n3)ccc21 and print it.
77

Retrieve microsomal stability (%) measured for Cc1c(F)c(Nc2ccc(-n3ccnc3)nc2)cc2c1ncn2CC1CC1 and print it.
95

Retrieve microsomal stability (%) measured for Cc1nc(Nc2ccc3c(n2)OCC(=O)N3C)cc2c1ncn2CC1CC1 and print it.
72

Retrieve microsomal stability (%) measured for Fc1cc(Nc2cc3c(ncn3CC3CC3)c(F)c2F)ccc1-n1ccnc1 and print it.
89

Retrieve microsomal stability (%) measured for Cc1nc(Nc2cnc3c(c2)OCC(=O)N3C)cc2c1ncn2CC1CC1 and print it.
94

---

Target: GABAA α5/β3/γ2 (Homo sapiens (Human), UniProt P18507+P31644)
Sequence (P31644 32-462): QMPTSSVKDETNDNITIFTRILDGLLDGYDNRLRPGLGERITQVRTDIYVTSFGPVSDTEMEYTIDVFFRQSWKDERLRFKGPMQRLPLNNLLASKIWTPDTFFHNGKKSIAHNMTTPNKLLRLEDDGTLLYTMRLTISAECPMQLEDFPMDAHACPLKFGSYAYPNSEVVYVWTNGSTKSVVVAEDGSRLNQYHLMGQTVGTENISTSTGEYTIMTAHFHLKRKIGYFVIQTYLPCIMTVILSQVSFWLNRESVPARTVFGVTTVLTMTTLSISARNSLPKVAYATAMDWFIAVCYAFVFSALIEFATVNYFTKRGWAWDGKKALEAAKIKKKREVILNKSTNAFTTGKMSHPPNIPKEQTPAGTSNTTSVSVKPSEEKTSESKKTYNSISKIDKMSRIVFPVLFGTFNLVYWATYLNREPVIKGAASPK
Sequence (P28472 26-473 partner): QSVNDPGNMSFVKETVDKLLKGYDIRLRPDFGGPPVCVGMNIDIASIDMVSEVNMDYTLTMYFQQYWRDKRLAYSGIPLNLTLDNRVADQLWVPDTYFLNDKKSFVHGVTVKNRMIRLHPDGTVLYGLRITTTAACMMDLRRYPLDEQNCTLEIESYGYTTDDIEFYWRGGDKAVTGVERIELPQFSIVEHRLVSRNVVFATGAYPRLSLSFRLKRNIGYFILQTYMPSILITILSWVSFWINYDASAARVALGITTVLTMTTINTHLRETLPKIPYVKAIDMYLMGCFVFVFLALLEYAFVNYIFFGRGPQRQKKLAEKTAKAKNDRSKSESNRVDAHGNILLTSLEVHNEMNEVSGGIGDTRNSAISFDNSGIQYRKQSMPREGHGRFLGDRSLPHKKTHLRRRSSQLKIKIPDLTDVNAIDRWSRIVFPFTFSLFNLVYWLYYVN
Sequence (P18507 40-475): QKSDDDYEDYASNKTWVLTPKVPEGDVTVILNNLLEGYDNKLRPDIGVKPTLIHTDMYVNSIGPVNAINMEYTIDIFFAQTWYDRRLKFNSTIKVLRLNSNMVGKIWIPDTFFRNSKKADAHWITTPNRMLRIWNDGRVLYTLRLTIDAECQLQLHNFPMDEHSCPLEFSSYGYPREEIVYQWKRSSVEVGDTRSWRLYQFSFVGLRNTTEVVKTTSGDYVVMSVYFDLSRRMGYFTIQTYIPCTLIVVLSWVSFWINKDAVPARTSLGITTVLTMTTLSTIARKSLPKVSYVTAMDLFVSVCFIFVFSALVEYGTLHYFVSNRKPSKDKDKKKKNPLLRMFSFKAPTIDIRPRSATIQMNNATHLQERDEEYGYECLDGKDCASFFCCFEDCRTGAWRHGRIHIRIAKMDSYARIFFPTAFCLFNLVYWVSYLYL
Test: Functional assay (PatchXpress automated patch-clamp), α5 subtype
Assay type: cell-based
Conditions: % change of GABA EC20 response; compound 1 μM; HEK293 cells
property_measured: inhibition at 1 µM (%)
Write the number in % without appending the unit.

Retrieve inhibition at 1 µM measured for CN1C(=O)COc2cc(Nc3cnc4ncn(CC5CC5)c4n3)ccc21 [Example 42] and print it.
55.9

Retrieve inhibition at 1 µM measured for CN1C(=O)COc2cc(Nc3cc4c(cc3F)ncn4CC3CC(F)(F)C3)cnc21 [Example 52] and print it.
41.8

Retrieve inhibition at 1 µM measured for Cn1c(=O)oc2cc(Nc3cnc4ncn(CC5CC5)c4n3)ccc21 [Example 43] and print it.
55.1

Retrieve inhibition at 1 µM measured for COCCN1C(=O)COc2cc(Nc3ncc4ncn(CC5CC5)c4n3)ccc21 [Example 46] and print it.
42.4

Retrieve inhibition at 1 µM measured for CN1C(=O)COc2cc(Nc3cc4c(cc3F)ncn4CCC3CC3)cnc21 [Example 67] and print it.
52.5

---

Biological target: GABAA α5/β3/γ2 (Homo sapiens (Human), UniProt P18507+P31644)
Test: Functional assay (PatchXpress automated patch-clamp), α5 subtype
Type: cell-based
Conditions: % change of GABA EC20 response; compound 1 μM; HEK293 cells
Hi there, I'd appreciate the recorded inhibition at 1 µM for every entry that follows.
Write the number in % without appending the unit.

Retrieve inhibition at 1 µM measured for Cc1cc(Nc2cc3c(cc2Cl)N(C)C(=O)CO3)nc2c1ncn2CC1CC1 [Example 160] and print it.
42.5

Retrieve inhibition at 1 µM measured for Cc1cc(Nc2ccc3c(n2)OCC(=O)N3C)nc2c1ncn2CC1CC1 [Example 159] and print it.
46.7

Retrieve inhibition at 1 µM measured for CN1C(=O)COc2ncc(Nc3ccc4ncn(CC5CC5)c4n3)cc21 [Example 111] and print it.
44.4

Retrieve inhibition at 1 µM measured for O=C1COc2cc(Nc3cc4c(cn3)ncn4CC3CC3)ccc2N1C1CC1 [Example 37] and print it.
46
